Every entry's value here was drawn from patent US12012413B2.

Protocol description: Solubility and stability of saturated solutions in pH 2-8 buffers at 25° C. (HPLC)
Assay type: physicochemical
Measurement context: aqueous buffer, pH 5, aqueous buffer, thermodynamic from solid; pH of about 5; ca. 25° C.; after about 7 days; read-out: solubility in an aqueous solvent
Recorded endpoint: solubility at 7 days

Query: Tell me the measured solubility at 7 days of CC(C)C(=O)N1CCC[C@]12CN([C@H](C(N)=O)[C@@H](C)O)C2=O [Form MH] , please.
Response: ~52.4 mg/mL

----------
Protocol description: Approximate solubility by stepwise dilution in solvents and solvent mixtures
Assay type: physicochemical
Measurement context: acetone, 22 °C, organic solvent or mixture, thermodynamic from solid, acetone, about 22° C., read-out: Solubility S
Recorded endpoint: solubility

Query: What does the data say about its solubility? Entry: CC(C)C(=O)N1CCC[C@]12CN([C@H](C(N)=O)[C@@H](C)O)C2=O [Form MH]
Response: 57 to 76 mg/mL
